target: GDP-bound KRAS wild-type protein (Homo sapiens, UniProt P01116); experiment: Binding to KRAS by surface plasmon resonance (SPR), Single Cycle Kinetics; settings: SPR Single Cycle Kinetics, GDP-bound KRAS wild-type protein, 1:1 binding model; read-out: KRAS KD
Sequence (P01116 whole entry): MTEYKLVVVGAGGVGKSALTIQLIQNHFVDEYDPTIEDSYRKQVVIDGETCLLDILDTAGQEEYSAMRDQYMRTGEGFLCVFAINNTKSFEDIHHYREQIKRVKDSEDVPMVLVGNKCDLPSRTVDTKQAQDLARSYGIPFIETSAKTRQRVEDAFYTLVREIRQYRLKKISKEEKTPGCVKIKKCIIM
pKd: −log10 of the molar value. *1 amine or outer side, *2 acyl side, *3 side chain or, on linkers, in order; H or OH if unused. Where a SMILES comes first, the peptide text is derived from it. Bridges are numbered along the chain shown (N, C = ends). [ ]: non-standard residue; d: D form. The star is where a group is joined. hPhe(3,5-F2-4-CF3) = N[C@@H](CCc1cc(F)c(C(F)(F)F)c(F)c1)C(=O)O; hPhe(3-Cl-4-CF3) = N[C@@H](CCc1ccc(C(F)(F)F)c(Cl)c1)C(=O)O; NPrPhe(4-CF3) = CCCN[C@@H](Cc1ccc(C(F)(F)F)cc1)C(=O)O; X9 = CCCN([C@@H](Cc1ccc(F)cc1)C(=O)[*:2])[*:1]; NPrPhe(4-Me) = CCCN[C@@H](Cc1ccc(C)cc1)C(=O)O; NMeGly(cPent) = CN[C@H](C(=O)O)C1CCCC1; αMeCha = C[C@](N)(CC1CCCCC1)C(=O)O; NMeD = CN[C@@H](CC(=O)O)C(=O)O; NMeL = CN[C@@H](CC(C)C)C(=O)O; Morpholide = C1CN(*)CCO1; NMeA = CN[C@@H](C)C(=O)O; Ac5c = NC1(C(=O)O)CCCC1; Aze = O=C(O)[C@@H]1CCN1; Sar = CNCC(=O)O
Assign class by pKd: not lower than 9 means label 1; lower than 9 means label 0.

Q: Exam item: decide whether the reported pKd for CCCN1C(=O)[C@@H]2CCN2C(=O)[C@H](C)N(C)C(=O)[C@H]([C@@H](C)CC)NC(=O)[C@H](CC(C)C)N(C)C(=O)C[C@@H](C(=O)N2CCOCC2)N(C)C(=O)[C@H](C2CCCC2)N(C)C(=O)C2(CCCC2)NC(=O)[C@@H]2CCCN2C(=O)[C@H](CCc2ccc(C(F)(F)F)c(Cl)c2)NC(=O)CN(C)C(=O)[C@@H]1Cc1ccc(F)cc1 [PP0219] ([NMeL]I[NMeA][Aze][X9][Sar][hPhe(3-Cl-4-CF3)]P[Ac5c][NMeGly(cPent)][NMeD]-Morpholide; lactam N-11) is at least 9.
Ans: label 1

Q: Could you please find out whether CCC[C@H]1C(=O)N[C@@H](CC(C)C)C(=O)N(CC)CC(=O)N(C)[C@H]2C/C=C\CCN(C2=O)[C@@H](Cc2ccc(C)cc2)C(=O)N(C)CC(=O)N[C@@H](CCc2ccc(C(F)(F)F)c(OC)c2)C(=O)N2C[C@H](OCC)C[C@H]2C(=O)NC2(CCC2)C(=O)N(C)[C@@H](C2CCCC2)C(=O)N(C)[C@H](C(=O)N(C)C)CC(=O)N1C [PP2540] has pKd that meets 9 or exceeds it?
Ans: label 0

Q: Reported pKd reaches at least 9 for CCO[C@@H]1C[C@H]2C(=O)NC3(CCCC3)C(=O)N(C)[C@@H](C3CCCC3)C(=O)N(C)[C@H](C(=O)N(C)C)CC(=O)N(C)[C@@H](C)C(=O)N[C@@H]([C@@H](C)CC)C(=O)N(C)CC(=O)N(C)[C@H]3CCCCCN(C3=O)[C@@H](Cc3ccc(C(F)(F)F)cc3)C(=O)N(C)CC(=O)N[C@@H](CCc3cc(F)c(C(F)(F)F)c(F)c3)C(=O)N2C1 [PP0475] ?
Ans: label 1

Q: Say whether CCCN1C(=O)CN(C)C(=O)CN(C)C(=O)[C@H]([C@@H](C)CC)NC(=O)[C@H](CC(C)C)N(C)C(=O)C[C@@H](C(=O)N2CCOCC2)NC(=O)[C@H](C2CCCC2)N(C)C(=O)C2(CCCC2)NC(=O)[C@@H]2CCCN2C(=O)[C@H](CCc2ccc(C(F)(F)F)c(Cl)c2)NC(=O)CN(C)C(=O)[C@@H]1Cc1ccc(C(F)(F)F)cc1 [PP0146] ([NMeL]I[Sar][Sar][NPrPhe(4-CF3)][Sar][hPhe(3-Cl-4-CF3)]P[Ac5c][NMeGly(cPent)]D-Morpholide; lactam N-11) shows pKd of 9 or more.
Ans: label 1

Q: Kindly determine if pKd recorded for CCCN1C(=O)[C@@H]2CCN2C(=O)[C@H](C)N(C)C(=O)[C@H]([C@@H](C)CC)NC(=O)[C@H](CC(C)C)N(C)C(=O)C[C@@H](C(=O)N2CCOCC2)N(C)C(=O)[C@H](C2CCCC2)N(C)C(=O)C2(CCCC2)NC(=O)[C@@H]2CCCN2C(=O)[C@H](CCc2ccc(C(F)(F)F)c(Cl)c2)NC(=O)CN(C)C(=O)[C@@H]1Cc1ccc(C)cc1 [PP0052] ([NMeL]I[NMeA][Aze][NPrPhe(4-Me)][Sar][hPhe(3-Cl-4-CF3)]P[Ac5c][NMeGly(cPent)][NMeD]-Morpholide; lactam N-11) is above or exactly 9.
Ans: label 1

Q: Quick check: does CCCN1C(=O)[C@@H]2CCN2C(=O)CN(C)C(=O)[C@H]([C@@H](C)CC)NC(=O)[C@H](CC(C)C)N(C)C(=O)C[C@@H](C(=O)N2CCOCC2)N(C)C(=O)[C@H](C2CCCC2)N(C)C(=O)[C@](C)(CC2CCCCC2)NC(=O)[C@@H]2CCCN2C(=O)[C@H](CCc2cc(F)c(C(F)(F)F)c(F)c2)NC(=O)CN(C)C(=O)[C@@H]1Cc1ccc(C(F)(F)F)cc1 [PP0796] ([NMeL]I[Sar][Aze][NPrPhe(4-CF3)][Sar][hPhe(3,5-F2-4-CF3)]P[αMeCha][NMeGly(cPent)][NMeD]-Morpholide; lactam N-11) have pKd greater than or equal to 9?
Ans: label 0

Q: Given the entry C#CC[C@H]1C(=O)N[C@@H]([C@@H](C)CC)C(=O)N(C)CC(=O)N(C)[C@H]2C/C=C\CCN(C2=O)[C@@H](Cc2ccc(C(F)(F)F)cc2)C(=O)N(C)CC(=O)N[C@@H](CCc2ccc(C(F)(F)F)c(OC)c2)C(=O)N2CCOC[C@H]2C(=O)NC2(CC(C)(C)C2)C(=O)N(C)[C@@H](C2CCCC2)C(=O)N(C)[C@H](C(=O)N(C)C)CC(=O)N1C [PP2905] , answer whether its pKd meets or surpasses 9.
Ans: label 1

Q: Test whether the compound CCC[C@H]1C(=O)N[C@@H]([C@@H](C)CC)C(=O)N(C)CC(=O)N(C)[C@H]2C/C=C\CCN(C2=O)[C@@H](Cc2ccc(C(F)(F)F)cc2)C(=O)N(C)CC(=O)N[C@@H](CCc2cc(F)c(C(F)(F)F)c(F)c2)C(=O)N2C[C@H](OCC)C[C@H]2C(=O)NC2(CC(C)(C)C2)C(=O)N(C)[C@@H](CC2CC2)C(=O)N(C)[C@H](C(=O)N(C)C)CC(=O)N1C [PP2807] records pKd of 9 or higher.
Ans: label 1

====

For each record, write down the corresponding Kd.
biological target: GDP-bound KRAS wild-type protein (Homo sapiens, UniProt P01116); assay: Binding to KRAS by surface plasmon resonance (SPR), Single Cycle Kinetics; conditions: SPR, Single Cycle Kinetics, GDP-bound KRAS wild-type protein; read-out: KRAS KD
Express it in nM; write the number only.

Q: Recorded Kd for CCOC[C@H]1C(=O)N[C@@H]([C@@H](C)CC)C(=O)N(C)CC(=O)N(C)[C@H]2C/C=C\CCN(C2=O)[C@@H](CC2CCC(F)(F)CC2)C(=O)N(C)CC(=O)N[C@@H](CCc2cc(F)c(C(F)(F)F)c(F)c2)C(=O)N2C[C@@H](C)C[C@H]2C(=O)NC2(CC(C)(C)C2)C(=O)N(C)[C@@H](C(CC)CC)C(=O)N(C)[C@H](C(=O)N(C)C)CC(=O)N1C [PP2462] , please?
Ans: 1.6

Q: What measured Kd goes with CCCO[C@H]1CCN2C(=O)[C@H](CCc3cc(F)c(C(F)(F)F)c(F)c3)NC(=O)CN(C)C(=O)[C@H](Cc3ccc(C(F)(F)F)cc3)N3CCCC[C@@H](C3=O)N(C)C(=O)CN(C)C(=O)[C@H]([C@@H](C)CC)NC(=O)[C@H](CC(C)C)N(C)C(=O)C[C@@H](C(=O)N3CCOCC3)N(C)C(=O)[C@H](C3CCCC3)N(C)C(=O)C3(CCC3)NC(=O)[C@H]12 [PP1077] ?
Ans: 0.085

Q: Which measured Kd value corresponds to CCO[C@@H]1C[C@H]2C(=O)NC3(CCC3)C(=O)N(C)[C@@H](C3CCCC3)C(=O)N(C)[C@H](C(=O)N(C)C)CC(=O)N(C)[C@@H](CC)C(=O)N[C@@H]([C@@H](C)CC)C(=O)N(C)[C@@H](C)C(=O)N(C)[C@H]3C/C=C\CCN(C3=O)[C@@H](Cc3ccc(C(F)(F)F)cc3)C(=O)N(C)CC(=O)N[C@@H](CCc3cc(F)c(C(F)(F)F)c(F)c3)C(=O)N2C1 [PP1054] ?
Ans: 3.9

Q: State the recorded Kd for this entry: CCO[C@@H]1C[C@H]2C(=O)NC3(CC(C)(C)C3)C(=O)N(C)[C@@H](C3CCCC3)C(=O)N(C)[C@H](C(=O)N(C)CC)CC(=O)N(C)[C@@H](CC(C)C)C(=O)N[C@@H]([C@@H](C)OCC)C(=O)N(C)CC(=O)N(C)[C@H]3C/C=C\CCN(C3=O)[C@@H](Cc3ccc(C(F)(F)F)cc3)C(=O)N(C)CC(=O)N[C@@H](CCc3cc(F)c(C(F)(F)F)c(F)c3)C(=O)N2C1 [PP1919]
Ans: 0.23

Q: Returns the measured Kd for the input compound. Input: CCCOC[C@H]1C(=O)N[C@@H]([C@@H](C)CC)C(=O)N(C)CC(=O)N(C)[C@H]2C/C=C\CCN(C2=O)[C@@H](Cc2ccc(C)cc2)C(=O)N(C)CC(=O)N[C@@H](CCc2ccc(C(F)(F)F)c(OC)c2)C(=O)N2C[C@H](OCC)C[C@H]2C(=O)NC2(CC(C)(C)C2)C(=O)N(C)[C@@H](C2CCCC2)C(=O)N(C)[C@H](C(=O)N(C)CC)CC(=O)N1C [PP2463]
Ans: 0.11

Q: Look up Kd for this compound: C=CCN1CC(=O)N(C)[C@H]2C/C=C\CCN(C2=O)[C@@H](Cc2ccc(C)cc2)C(=O)N(C)CC(=O)N[C@@H](CCc2cc(F)c(C(F)(F)F)c(F)c2)C(=O)N2C[C@H](OCC)C[C@H]2C(=O)NC2(CC(C)(C)C2)C(=O)N(C)[C@@H](C2CCCC2)C(=O)N(C)[C@H](C(=O)N(C)C)CC(=O)N(C)[C@@H](CCC)C(=O)N[C@@H]([C@@H](C)CC)C1=O [PP2094]
Ans: 0.29
